Cited source: patent US20230405003A1

Test system: HaCaT cells
assay_summary: Relief of 5-FU proliferative toxicity to HaCaT cells (CCK-8 cell survival)
Type: cell-based
test_context: 5-Fu 20 μM; selected compound final concentration 0.8 μM; HaCaT cells
The entries below come with measured Cell Survival Rate (increased percentage of cell survival compared with the Group of 5-FU) values attached.

Some molecules with known Cell Survival Rate (increased percentage of cell survival compared with the Group of 5-FU) results, for comparison:
{"molecule": "Cc1ccc(Nc2c(F)cccc2Cl)c(CC(=O)OC[C@H]2O[C@@H](n3cc(C)c(=O)[nH]c3=O)C[C@@H]2O)c1", "target_under_test": "HaCaT cells", "measurement": "23%-31%"}
{"molecule": "CCC(CC)COC(=O)[C@H](C)N[P@@](=O)(Oc1ccccc1)O[C@H]1C[C@H](n2cc(C)c(=O)[nH]c2=O)O[C@@H]1CO", "target_under_test": "HaCaT cells", "measurement": "35%-42%"}
{"molecule": "CC(=O)Oc1ccccc1C(=O)OC[C@H]1O[C@@H](n2cc(C)c(=O)[nH]c2=O)C[C@@H]1O", "target_under_test": "HaCaT cells", "measurement": "36%-44%"}
{"molecule": "Cc1cn([C@H]2C[C@H](OC(=O)C(C)c3cccc(Oc4ccccc4)c3)[C@@H](CO)O2)c(=O)[nH]c1=O (stereo partly drawn)", "target_under_test": "HaCaT cells", "measurement": "23%-31%"}
{"molecule": "Cc1cn([C@H]2C[C@H](O)[C@@H](COC(=O)[C@H](C)c3ccc(-c4ccccc4)c(F)c3)O2)c(=O)[nH]c1=O", "target_under_test": "HaCaT cells", "measurement": "19%-25%"}

Now, please, on to the next molecule.
Write down the reported Cell Survival Rate (increased percentage of cell survival compared with the Group of 5-FU) (system: HaCaT cells) of COc1ccc2c(c1)c(CC(=O)OC[C@H]1O[C@@H](n3cc(C)c(=O)[nH]c3=O)C[C@@H]1O)c(C)n2C(=O)c1ccc(Cl)cc1
13%-21%

* * *

Recorded measurements of Cell Survival Rate (increased percentage of cell survival compared with the Group of 5-FU), one per entry
System: HaCaT cells
assay_summary: Relief of 5-FU proliferative toxicity to HaCaT cells (CCK-8 cell survival)
Assay type: cell-based
test_context: 5-Fu 20 μM; selected compound final concentration 6.25 μM; HaCaT cells

{"compound": "COc1ccc2c(c1)c(CC(=O)OC[C@H]1O[C@@H](n3cc(C)c(=O)[nH]c3=O)C[C@@H]1O)c(C)n2C(=O)c1ccc(Cl)cc1 [T38]", "measurement": "46%-55%"}
{"compound": "CC(=O)Oc1ccccc1C(=O)OC[C@H]1O[C@@H](n2cc(C)c(=O)[nH]c2=O)C[C@@H]1O [T37]", "measurement": "68%-76%"}
{"compound": "Cc1ccc(Nc2c(F)cccc2Cl)c(CC(=O)OC[C@H]2O[C@@H](n3cc(C)c(=O)[nH]c3=O)C[C@@H]2O)c1 [T35]", "measurement": "64%-70%"}

# ---- query compound ----
Return value of Cell Survival Rate (increased percentage of cell survival compared with the Group of 5-FU) for input Cc1cn([C@H]2C[C@H](O)[C@@H](COC(=O)[C@H](C)c3ccc(-c4ccccc4)c(F)c3)O2)c(=O)[nH]c1=O [T29] , no commentary.
43%-50%
